# target or system: UniProtKB Q06187
# assay method text: biochemical
# test settings: read-out: BTK inhibition (%), 0.75 uM BTK, […] probe 3l, 15 min preincubation
Would you please tag the item T when its inhibition at 10 µM is 10% or above, and F when it is below?

compound	target or system	answer label
C[C@@H]1COCCN1c1cc(C2(S(C)(=O)=O)CC2)nc(-c2cccc3[nH]ccc23)n1 [PCM-0095779]	UniProtKB Q06187	F
Cc1cc(N=Nc2ccc(S(=O)(=O)Nc3ccccn3)cc2)c(N)cc1O [PCM-0215414]	UniProtKB Q06187	T
CC(C)=CCC[C@](C)(O[C@@H]1O[C@H](CO[C@@H]2OC[C@@H](O)[C@H](O)[C@H]2O)[C@@H](O)[C@H](O)[C@H]1O)[C@H]1CC[C@]2(C)[C@@H]1[C@H](O)C[C@@H]1[C@@]3(C)CC[C@H](O[C@@H]4O[C@H](CO)[C@@H](O)[C@H](O)[C@H]4O[C@@H]4O[C@H](CO)[C@@H](O)[C@H](O)[C@H]4O)C(C)(C)[C@@H]3CC[C@]12C [PCM-0216464]	UniProtKB Q06187	F
COc1ccc(C(=O)C(=O)c2ccc(OC)cc2)cc1 [PCM-0216078]	UniProtKB Q06187	T
Cc1cc(C)c(S(=O)(=O)n2cc(C)cc2C)c(C)c1 [PCM-0215336]	UniProtKB Q06187	F
COc1cc(O)cc(O)c1C(=O)C=Cc1ccccc1 [PCM-0214685]	UniProtKB Q06187	T
Cc1cc(C)cc(Oc2ccc(CNC(=O)[C@H](C)N)cc2C)c1 [PCM-0215829]	UniProtKB Q06187	F
NC(=O)[C@@H](CCC(F)(F)F)N(Cc1ccc(-c2ncon2)cc1F)S(=O)(=O)c1ccc(Cl)cc1 [PCM-0214565]	UniProtKB Q06187	F
CC(C)N1CCN(Cc2cnc(-c3cc(-c4cccc5[nH]ccc45)cc4[nH]ncc34)o2)CC1 [PCM-0213407]	UniProtKB Q06187	T
C[C@H]1CC[C@@]2(O)C(C)(C)[C@@H]3CC[C@@]2(C)[C@H]1C3 [PCM-0215010]	UniProtKB Q06187	F
O=c1c(-c2ccc(O[C@@H]3O[C@H](CO)[C@@H](O)[C@H](O)[C@H]3O)cc2)coc2cc(O)cc(O)c12 [PCM-0215108]	UniProtKB Q06187	F
Nc1ncnc2c1ncn2[C@@H]1O[C@H](COP(=O)(O)O)[C@@H](O)[C@H]1O [PCM-0086027]	UniProtKB Q06187	F

----------
Entries annotated with measured inhibition at 10 µM
# target or system: BTK (Homo sapiens, UniProt Q06187)
# Sequence (Q06187 402-655 limits assumed): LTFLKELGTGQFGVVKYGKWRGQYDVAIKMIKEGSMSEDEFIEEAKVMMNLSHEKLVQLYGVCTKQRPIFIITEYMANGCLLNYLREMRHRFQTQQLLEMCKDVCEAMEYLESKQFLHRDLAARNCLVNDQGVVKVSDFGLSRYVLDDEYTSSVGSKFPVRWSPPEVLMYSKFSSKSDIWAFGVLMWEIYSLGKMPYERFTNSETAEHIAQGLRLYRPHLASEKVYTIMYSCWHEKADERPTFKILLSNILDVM
# assay method text: biochemical
# test settings: read-out: BTK inhibition (%), 0.75 uM BTK, […] probe 3l, 15 min preincubation

compound	inhibition at 10 µM [%]
CC(=O)c1ccccc1 [PCM-0216190]	3.1
CC(C)[C@H](CO)Nc1nc(Nc2cccc(Cl)c2)c2ncn(C(C)C)c2n1 [PCM-0215464]	50.3
CC[C@H]1OC(=O)[C@H](C)[C@@H](O[C@H]2C[C@@](C)(OC)[C@@H](O)[C@H](C)O2)[C@H](C)[C@@H](O[C@@H]2O[C@H](C)C[C@H](N(C)C)[C@H]2O)[C@](C)(O)C[C@@H](C)CN[C@H](C)[C@@H](O)[C@]1(C)O [PCM-0215099]	-13.2
C[C@H](CCC(=O)O)[C@H]1CC[C@H]2[C@@H]3CC[C@@H]4C[C@H](O)CC[C@]4(C)[C@H]3CC[C@]12C [PCM-0214742]	-8.6
O=C(O)C1=CO[C@@H](O[C@@H]2O[C@H](CO)[C@@H](O)[C@H](O)[C@H]2O)[C@H]2[C@@H]1C=C[C@]2(O)CO [PCM-0216181]	-6.9
CC(=O)N[C@@H](CC(C)C)C(=O)N[C@@H](CC(C)C)C(=O)N[C@H](C=O)CCCN=C(N)N [PCM-0215331]	9.3

----------
# target or system: BTK (Homo sapiens)
# assay method text: biochemical
# test settings: read-out: BTK inhibition (%), 0.75 uM BTK, […] probe 3l, 15 min preincubation
property name: inhibition at 10 µM (%)

molecule	observed
Cn1cc(C2=C(c3cn(CCCSC(=N)N)c4ccccc34)C(=O)NC2=O)c2ccccc21 [PCM-0215237]	117
CCCCCCCCC(=O)O [PCM-0216031]	-8.6
C=C1C[C@@]23CC[C@H]4[C@@](C)(CCC[C@@]4(C)C(=O)O)[C@@H]2CC[C@]1(O[C@@H]1O[C@H](CO)[C@@H](O)[C@H](O)[C@H]1O[C@@H]1O[C@H](CO)[C@@H](O)[C@H](O)[C@H]1O)C3 [PCM-0216480]	-3.9
COc1cc2ncnc(Nc3cccc(Cl)c3F)c2cc1OC(=O)N1CCN(C)C[C@H]1C [PCM-0215575]	-19.3
O=c1n(CCCN2CCN(c3cccc(Cl)c3)CC2)nc2ccccn12 [PCM-0064865]	-0.9
CO[C@H]1C[C@H](O[C@H]2[C@H](C)O[C@@H](O[C@@H]3/C(C)=C/C[C@@H]4C[C@@H](C[C@]5(C=C[C@H](C)[C@@H](C6CCCCC6)O5)O4)OC(=O)[C@@H]4C=C(C)[C@@H](O)[C@H]5OC/C(=C\C=C\[C@@H]3C)[C@]54O)C[C@@H]2OC)O[C@@H](C)[C@@H]1O [PCM-0215971]	44

----------
# target or system: BTK (Homo sapiens)
# assay method text: biochemical
# test settings: read-out: BTK inhibition (%), 0.75 uM BTK, […] probe 3l, 15 min preincubation

molecule	readout units	inhibition at 10 µM
COc1cc([C@@H]2c3cc4c(cc3[C@@H](O[C@@H]3O[C@@H]5CO[C@@H](c6cccs6)O[C@H]5[C@H](O)[C@H]3O)[C@H]3COC(=O)[C@H]23)OCO4)cc(OC)c1O	%	24.1
COC(=O)c1ccc2c(C(=Nc3ccc(N(C)C(=O)CN4CCN(C)CC4)cc3)c3ccccc3)c(O)[nH]c2c1	%	22.1
NCCS(=O)(=O)O	%	-6
CCCc1cc2c(N3CCN(C4=NCC(C)(C)S4)CC3)ncnc2s1	%	-24.7
CC(=O)O[C@@H]1C[C@H](C)CC[C@H]1C(C)C	%	13.1
Cc1ccc(C(=O)c2cc(O)c(O)c([N+](=O)[O-])c2)cc1	%	38.1
CN1C(C(=O)Nc2ccccn2)=C(O)c2sccc2S1(=O)=O	%	-6.9
CC(=O)O[C@H]1CC/C(C)=C/CC/C(C)=C/C[C@]2(C(C)C)CC[C@@]1(C)O2	%	-10
CC(C)c1cc2c(cc1S(=O)(=O)O)[C@@]1(C)CCC[C@@](C)(C(=O)O)[C@@H]1CC2	%	3.9
NC(=O)c1nc(F)c[nH]c1=O	%	-6.2
O=C(O)c1ccc(O)cc1	%	-10.9
CCc1nc(N)nc(N)c1-c1ccc(Cl)cc1	%	-13.2
CCCCCCCN(CC)CCCC(O)c1ccc(NS(C)(=O)=O)cc1 (stereo not drawn)	%	-17.1
COc1c(C)c(O)cc2[o+]c(-c3ccccc3)ccc12	%	38.6
CCS(=O)(=O)Nc1ccc2[nH]c(O)c(C(=Nc3ccc(CN4CCCCC4)cc3)c3ccccc3)c2c1	%	82.1
Nc1ncnc2c1nc(Br)n2[C@@H]1O[C@@H]2COP(=O)(O)O[C@H]2[C@H]1O	%	1.5
O=[N+]([O-])c1ccc(Nc2ccccc2-c2ccccc2)c2nonc12	%	74.1
C[C@@](Cc1ccc(O)c(O)c1)(NN)C(=O)O	%	-14.8

----------
# target or system: BTK (Homo sapiens, UniProt Q06187)
# assay method text: biochemical
# test settings: read-out: BTK inhibition (%), 0.75 uM BTK, […] probe 3l, 15 min preincubation
property name: inhibition at 10 µM (%)

> print(dat)
                                   compound        property.name  observed
1  CN1C(=O)COc2c(C(=O)NC3CN4CCC3CC4)cc(Cl)cc21 (stereo not drawn)  inhibition at 10 µM      -7.7
2  O=C(CCN1CCN(C(=O)OCc2cc(Cl)cc(Cl)c2)CC1)c1ccc2[nH]c(=O)oc2c1  inhibition at 10 µM      -4.6
3  C[C@H](NC(=O)CCC(F)(F)F)C(=O)N[C@@H]1C(=O)N(CCO)c2ncccc2-c2ccccc21  inhibition at 10 µM      15.4
4                            NC(=O)c1cnccn1  inhibition at 10 µM       5.4
5  C[C@]12CCC(=O)C=C1CC[C@@H]1[C@@H]2[C@@H](O)C[C@@]2(C)[C@H]1CC[C@]2(O)C(=O)CO  inhibition at 10 µM      12.4
6                     O=C(O)CNC(=O)c1ccccc1  inhibition at 10 µM      20.8
7  NC(CO)C(=O)NNCc1ccc(O)c(O)c1O (stereo not drawn)  inhibition at 10 µM       -14
8  Cc1ccsc1C(=CCCN1CCC[C@@H](C(=O)O)C1)c1sccc1C  inhibition at 10 µM        -7
9  COc1cc(-c2coc3cc4c(c(OC)c3c2=O)OCO4)cc(OC)c1OC  inhibition at 10 µM      -9.3
